Please provide measured phosphorylation enrichment for the entries that follow.
- Target or test system: Fyn (UniProt P06241)
- Sequence (P06241 whole entry, looked up): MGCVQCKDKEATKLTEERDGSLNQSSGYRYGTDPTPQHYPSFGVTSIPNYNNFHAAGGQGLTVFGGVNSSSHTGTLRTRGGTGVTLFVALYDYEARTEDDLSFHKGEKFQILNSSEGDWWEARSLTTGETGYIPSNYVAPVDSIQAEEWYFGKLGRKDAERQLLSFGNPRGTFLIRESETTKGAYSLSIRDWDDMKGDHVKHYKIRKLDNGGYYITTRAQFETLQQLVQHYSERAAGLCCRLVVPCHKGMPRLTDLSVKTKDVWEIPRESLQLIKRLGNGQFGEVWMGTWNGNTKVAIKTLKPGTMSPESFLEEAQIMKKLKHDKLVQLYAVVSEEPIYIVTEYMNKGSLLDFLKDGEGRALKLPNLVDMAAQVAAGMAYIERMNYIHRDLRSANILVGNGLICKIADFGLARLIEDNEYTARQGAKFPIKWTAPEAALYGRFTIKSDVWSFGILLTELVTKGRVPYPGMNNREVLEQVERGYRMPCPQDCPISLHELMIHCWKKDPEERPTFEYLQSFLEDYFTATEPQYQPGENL
- Test method notes: phosphorylation enrichment, bacterial display (enrichment ratio); higher = better substrate or ligand; peptides without Tyr show the background
Output spec: single numeric token, no unit.

Enquiry: Can you look up the measured phosphorylation enrichment of IGSQRYQLGVR [RB1_Y446_K447Q] for me?
Return: 0.365

Enquiry: Same for IGERTYGQVFK [CDK13_Y716_G714R_YF]
Return: 7.52

Enquiry: Same for MKSIKYMDKEV [CCDC60_Y41_I46V]
Return: 0.344

Enquiry: Same for ATDLAYFLVRK [ASL_Y375_YF]
Return: 0.725

Enquiry: Same for PYSSPYENSLI [EPOR_Y489_N487S]
Return: 0.668

Enquiry: Same for RQQEVYLLFKQ [RARRES1_Y159_D158V_YF]
Return: 0.892

Enquiry: Same for CTTIHYDYMCN [TP53_Y234_N235D]
Return: 0.657

Enquiry: Same for KDHPDYKYPPR [SOX10_Y171_Q174P]
Return: 0.438

Enquiry: Same for GHLYANDWISI [BEST1_Y227_Y227N]
Return: 0.734

Enquiry: Same for ATGGFYSFGGG [KRT24_Y120_YF]
Return: 3.93

Enquiry: Same for GGKYSYLKVGH [GRM3_Y480]
Return: 0.497

Enquiry: Same for VLRRVYVDFEG [KMT2B_Y1707]
Return: 0.472

Enquiry: Same for KNNDGYIDYAE [MCFD2_Y135]
Return: 0.536

Enquiry: Same for YRQNGYIPGSN [PCDHGA1_Y895_V894G]
Return: 0.384

====

- Target or test system: EPHB1 (UniProt P54762)
- Sequence (P54762 whole entry, looked up): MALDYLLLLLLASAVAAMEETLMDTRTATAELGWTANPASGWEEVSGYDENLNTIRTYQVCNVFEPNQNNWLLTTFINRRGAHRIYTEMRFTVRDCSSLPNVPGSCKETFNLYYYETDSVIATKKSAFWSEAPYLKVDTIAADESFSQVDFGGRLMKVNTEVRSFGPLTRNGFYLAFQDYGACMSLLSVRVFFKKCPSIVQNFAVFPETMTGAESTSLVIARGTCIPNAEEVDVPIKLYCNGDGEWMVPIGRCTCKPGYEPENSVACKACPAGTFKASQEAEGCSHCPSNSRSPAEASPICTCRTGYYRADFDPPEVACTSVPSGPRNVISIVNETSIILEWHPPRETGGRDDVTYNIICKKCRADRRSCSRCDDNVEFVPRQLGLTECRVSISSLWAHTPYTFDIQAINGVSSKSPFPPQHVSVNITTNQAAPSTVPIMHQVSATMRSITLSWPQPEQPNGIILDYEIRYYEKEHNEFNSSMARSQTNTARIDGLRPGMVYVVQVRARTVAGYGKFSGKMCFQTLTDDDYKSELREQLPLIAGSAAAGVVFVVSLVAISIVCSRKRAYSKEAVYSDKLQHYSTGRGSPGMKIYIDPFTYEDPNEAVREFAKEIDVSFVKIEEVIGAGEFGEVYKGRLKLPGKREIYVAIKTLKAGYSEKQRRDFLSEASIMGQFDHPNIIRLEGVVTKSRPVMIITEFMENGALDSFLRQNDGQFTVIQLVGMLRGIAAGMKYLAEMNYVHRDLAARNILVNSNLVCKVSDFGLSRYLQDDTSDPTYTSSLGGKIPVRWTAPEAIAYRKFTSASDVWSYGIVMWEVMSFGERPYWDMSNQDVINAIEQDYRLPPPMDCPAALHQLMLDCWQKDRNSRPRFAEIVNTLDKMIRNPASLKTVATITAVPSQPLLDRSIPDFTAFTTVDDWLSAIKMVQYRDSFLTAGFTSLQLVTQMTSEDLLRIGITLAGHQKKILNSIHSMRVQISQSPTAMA
- Test method notes: phosphorylation enrichment, bacterial display (enrichment ratio); higher = better substrate or ligand; peptides without Tyr show the background
Parameter threshold = 0.6. Response is T when phosphorylation enrichment meets or exceeds it, else F.

Enquiry: Determine whether this sequence has phosphorylation enrichment no lower than 0.6: VYAADYYKLLG [ROR2_Y645]
Return: T

Enquiry: Same for HDHFGYRQSVT [CD55_Y245_R240H_YF]
Return: T

Enquiry: Same for GIFKDYFRFNF [PLA2G2D_Y85_S80G_YF]
Return: F

Enquiry: Same for HHTDEYEYDEL [TGM1_Y134]
Return: T

Enquiry: Same for YDGKDYIALNE [HLA-A_Y147]
Return: T

Enquiry: Same for KLIETYFSKNF [PLP1_Y50_YF]
Return: F

Enquiry: Same for FRRITYHNWRH [PDE6B_Y556_YF]
Return: F

Enquiry: Same for DPGVSYHTREE [PDHA1_Y301_R302H]
Return: F

Enquiry: Same for LIGRRCDDPEV [HSPA9_Y128_Y128C]
Return: T

Enquiry: Same for AHLTEYLSTHY [UQCRC1_Y219_D215H]
Return: F

Enquiry: Same for ITNLLYHLVGW [GBA_Y412_V414L]
Return: T

Enquiry: Same for QNTVDYFDLFG [PTPN11_Y62_G60V_YF]
Return: T

Enquiry: Same for YIIFIYAMKKK [SLCO1B1_Y645_L643F]
Return: F

Enquiry: Same for PMDTFYDSTRG [DYNC2H1_Y2231_YF]
Return: T

Enquiry: Same for LTVVIYVLVGR [EPHA3_Y561_I564V]
Return: F

Enquiry: Same for ATCKAYGQALA [TKT_Y321_R318C]
Return: F

Enquiry: Same for LPKVSYMKAID [GLRA1_Y307_V308M]
Return: T

Enquiry: Same for "TENAGYFFRIS"
Return: T

Enquiry: Same for NWGSPYKSDGC [ZNF347_Y261_N264D]
Return: F

Enquiry: Same for KDHRDYKYQPR [SOX9_Y172_P170R]
Return: F

Enquiry: Same for KLPDAYERLIL [G6PD_Y437]
Return: F

Enquiry: Same for KKFPDYIQIAR [SGMS2_Y59_M64R_YF]
Return: T

Enquiry: Same for AIGYEYSEINI [SIGLEC12_Y588]
Return: T

Enquiry: Same for VKKNRYKDILP [PTPN12_Y64]
Return: F

====

- Target or test system: c-Src SH2
- Test method notes: SH2 binding enrichment of the phosphorylated peptide, bacterial display (enrichment ratio); higher = better substrate or ligand; peptides without Tyr show the background
Measured attribute: SH2 binding enrichment
Output spec: single numeric token, no unit.

Enquiry: Can you look up the measured SH2 binding enrichment of LADKPYTFEFF [FXN_Y118_D122Y_YF] for me?
Return: 0.675

Enquiry: Same for KSLFHHRQYSA [CPS1_Y1491_Y1491H]
Return: 0.341

Enquiry: Same for CLRIDYERVSQ [DSP_Y1542_R1537C]
Return: 0.567

Enquiry: Same for IRGNMYFENSF [EGFR_Y112_YF]
Return: 0.606

Enquiry: Same for LSIQCYLRALD [HMGCS2_Y262]
Return: 0.454

Enquiry: Same for EDSEYYRAFEE [CASQ2_Y179_K180R]
Return: 0.411

Enquiry: Same for ADSLRYIYPKL [EIF2B3_Y92]
Return: 12.5

====

- Target or test system: SHP2-C SH2
- Test method notes: SH2 binding enrichment of the phosphorylated peptide, bacterial display (enrichment ratio); higher = better substrate or ligand; peptides without Tyr show the background
Parameter threshold = 0.9. Response is TRUE when SH2 binding enrichment meets or exceeds it, else FALSE.

Enquiry: Determine whether this sequence has SH2 binding enrichment no lower than 0.9: DAASNYARGHF [TUBA3E_Y103_YF]
Return: FALSE

Enquiry: Same for CTTIHYNFICN [TP53_Y234_M237I_YF]
Return: TRUE

Enquiry: Same for ALDRPYTSKHS [NANS_Y71_E68D]
Return: FALSE

Enquiry: Same for KYVVVYFRETD [IL17RB_Y447_I451T]
Return: TRUE

Enquiry: Same for GEDLSYGDVPP [IRS1_Y151]
Return: FALSE

Enquiry: Same for NIWDSYTTNKV [GNB1_Y85_I80N]
Return: FALSE

====

- Target or test system: FGFR3 (UniProt P22607)
- Sequence (P22607 whole entry, looked up): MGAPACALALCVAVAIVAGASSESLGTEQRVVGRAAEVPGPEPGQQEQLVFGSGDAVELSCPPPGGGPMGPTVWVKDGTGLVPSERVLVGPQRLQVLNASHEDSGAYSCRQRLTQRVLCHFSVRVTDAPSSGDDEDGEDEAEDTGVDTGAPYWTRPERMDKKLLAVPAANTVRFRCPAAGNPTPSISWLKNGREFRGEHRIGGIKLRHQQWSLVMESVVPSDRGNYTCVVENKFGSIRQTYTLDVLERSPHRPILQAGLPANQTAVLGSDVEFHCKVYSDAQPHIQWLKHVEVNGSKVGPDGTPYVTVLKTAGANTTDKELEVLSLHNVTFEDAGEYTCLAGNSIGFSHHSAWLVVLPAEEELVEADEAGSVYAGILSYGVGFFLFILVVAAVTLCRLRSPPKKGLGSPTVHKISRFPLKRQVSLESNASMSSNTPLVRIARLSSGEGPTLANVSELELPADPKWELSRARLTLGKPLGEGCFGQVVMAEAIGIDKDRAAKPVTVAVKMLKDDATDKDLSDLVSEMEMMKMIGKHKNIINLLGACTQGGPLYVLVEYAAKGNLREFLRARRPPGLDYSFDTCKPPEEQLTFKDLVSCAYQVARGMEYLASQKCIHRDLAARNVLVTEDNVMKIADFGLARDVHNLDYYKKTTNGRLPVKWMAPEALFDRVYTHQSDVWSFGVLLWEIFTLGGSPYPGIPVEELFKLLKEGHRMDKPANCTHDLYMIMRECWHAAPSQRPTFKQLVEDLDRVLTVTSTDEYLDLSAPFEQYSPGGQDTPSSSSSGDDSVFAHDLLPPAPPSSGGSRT
- Test method notes: phosphorylation enrichment, bacterial display (enrichment ratio); higher = better substrate or ligand; peptides without Tyr show the background
Classify by phosphorylation enrichment. Ranges: bucket A: < 0.6; bucket B: ≥ 0.6 and < 0.7; bucket C: ≥ 0.7

Enquiry: Could you tell me which band NQDRTYFERVR [SPEN_Y632_S635R_YF] belongs to?
Return: bucket A

Enquiry: Same for MKKKIYAMGGG [GAN_Y424]
Return: bucket A

Enquiry: Same for MAYDRYVAICS [OR8D4_Y123_C120Y]
Return: bucket C

Enquiry: Same for LGRGKSSEVFE [CSNK2A1_Y50_Y50S]
Return: bucket B

Enquiry: Same for FSMGCYEIFLG [HMGCL_Y198_S201Y_YF]
Return: bucket C

Enquiry: Same for HRGCLYLAIEF [TEK_Y899_Y897C_YF]
Return: bucket C

Enquiry: Same for KKKKQYKDKFL [CASK_Y708_YF]
Return: bucket A

Enquiry: Same for EAVSIYQFYGQ [CBLC_Y402_H405Y]
Return: bucket C

Enquiry: Same for DRLASYLEKVR [KRT13_Y118]
Return: bucket A

Enquiry: Same for SSQHRYSTPHA [RAF1_Y232]
Return: bucket A

Enquiry: Same for YRQNGYIPGSN [PCDHGA1_Y895_V894G]
Return: bucket A

Enquiry: Same for SDYYAYSPVRE [H6PD_Y449]
Return: bucket C

Enquiry: Same for DAASNYARGHF [TUBA3E_Y103_YF]
Return: bucket A

Enquiry: Same for DWRQEYVLNES [TGM1_Y267]
Return: bucket C

Enquiry: Same for KQRKEYMHRRQ [IQGAP2_Y710]
Return: bucket A

Enquiry: Same for IGEGTSGVVYK [CDK2_Y15_Y15S]
Return: bucket A

Enquiry: Same for SRNKPYISWPS [CDC42BPB_Y1638]
Return: bucket A

Enquiry: Same for SVVVPFEPPEV [TP53_Y220_Y220F]
Return: bucket B

Enquiry: Same for KEEEDYKEENN [BMS1_Y651]
Return: bucket A

Enquiry: Same for GGRIDYIAGLD [APRT_Y60]
Return: bucket A

Enquiry: Same for DLDLTSIYPNI [PTEN_Y27_Y27S]
Return: bucket C

Enquiry: Same for FYRNVYHLASV [RBL1_Y796_K794N]
Return: bucket A

Enquiry: Same for SHISGYAALRR [RAPH1_Y1226_T1228A]
Return: bucket A

Enquiry: Same for KELAPYDENWF [RPS19_Y48]
Return: bucket B

Enquiry: Same for ADFFDYGHGLS [KHDRBS3_Y304_YF]
Return: bucket C

Enquiry: Same for QKPLDYYRVNL [GALE_Y104]
Return: bucket C

Enquiry: Same for SSDPDYRAAVD [GLB1_Y154_L155R]
Return: bucket B

Enquiry: Same for KKGIVYIFNGR [ITGAV_Y404]
Return: bucket A

Enquiry: Same for GHLYANDWISI [BEST1_Y227_Y227N]
Return: bucket B

Enquiry: Same for CFSSEYHFVGG [CTSC_Y345_Y340C_YF]
Return: bucket C

Enquiry: Same for HPHECYAKVFD [ALB_Y394_D389H]
Return: bucket C

Enquiry: Same for AAVDNYCRHNY [HLA-DRB1_Y107_T106N]
Return: bucket B

Enquiry: Same for ECIEFYELDKK [PMM2_Y145_R141C]
Return: bucket C

Enquiry: Same for KLFFIYTPGTT [SLC27A4_Y245_S247P_YF]
Return: bucket C

Enquiry: Same for NTPNAYLRVNV [ADD2_Y440_T439A]
Return: bucket B

Enquiry: Same for DQLVKYGVNPG [TMPO_Y127]
Return: bucket A

Enquiry: Same for YAADYYKLLGN [ROR2_Y646]
Return: bucket C

Enquiry: Same for CSRRFYQLTKL [AR_Y858]
Return: bucket A

Enquiry: Same for VLTSKYHGGGG [HBA1_Y141_R142H]
Return: bucket A

Enquiry: Same for DSSIRYLQEIY [FGG_Y135]
Return: bucket B

Enquiry: Same for INNIDYYKNTT [FGFR2_Y656_K659N]
Return: bucket A

Enquiry: Same for HNMPIYEGYAL [ACTA1_Y168_V165M]
Return: bucket B

Enquiry: Same for YPPTHYIRRVP [SLC4A11_Y820]
Return: bucket A

Enquiry: Same for GCLSKYSGVFS [TUBGCP6_Y1624_V1621L]
Return: bucket A

Enquiry: Same for RNIQQHNSFVS [PRKAR1A_Y373_Y373H]
Return: bucket A

Enquiry: Same for HKLSYYEYDFE [BTK_Y40]
Return: bucket C

Enquiry: Same for PRDGEYFTLQI [TP53_Y327_L323R]
Return: bucket C

Enquiry: Same for LSIWPYLQKID [MFSD8_Y63_M58L]
Return: bucket C

Enquiry: Same for "PKDSAYVTWEP"
Return: bucket C

Enquiry: Same for RSSNTYTLMDV [ALCAM_Y298_T301M]
Return: bucket C

Enquiry: Same for LGRGKYSEVFE [CSNK2A1_Y50]
Return: bucket C

Enquiry: Same for ESDGAYIQRMQ [CCDC137_Y125_H127Q]
Return: bucket A
